Below, each entry is listed alongside its reported z-score of subpopulation abundance.
- Tested on: Saccharomyces cerevisiae BY4741 SeMeCo community
- experiment.summary: z-score of subpopulation abundance vs DMSO median, subpopulation auxotrophic for HUM; higher = larger share of this subpopulation than in DMSO controls
- condition.label: 10 µM; 24 h; SM minimal medium; subpopulation (auxotrophy): HUM
Structures can show the parent of a compound that is named as a salt.
Reply briefly: the number, and no unit.

Worked examples, 3 molecules total:
{"columns": ["molecule", "recorded.result"],
 "data": [
  ["Oc1c(I)cc(I)c2cccnc12 [Diiodohydroxyquinoline]", 1.2],
  ["COc1ccc(CCN(C)CCCC(C#N)(c2ccc(OC)c(OC)c2)C(C)C)cc1OC (centres undefined) [Verapamil HCl]", 0.05],
  ["CN(C)CC/C=C1/c2ccccc2Sc2ccc(Cl)cc21", -0.32]
]}

### Prompt Recorded z-score of subpopulation abundance of Cc1c(S(=O)(=O)O)oc2c1C(=O)C(=O)c1c-2ccc2c1CCCC2(C)C [Tanshinone IIA sulfonate (sodium)] , please.
### Response 0.71

* * *

Below, each entry is listed alongside its reported z-score of subpopulation abundance.
- System: Saccharomyces cerevisiae BY4741 SeMeCo community
- experiment.summary: z-score of subpopulation abundance vs DMSO median, subpopulation auxotrophic for UM; higher = larger share of this subpopulation than in DMSO controls
- condition.label: 10 µM; 24 h; SM minimal medium; subpopulation (auxotrophy): UM
Where a name gives a salt, the structure may show the parent alone.
Reply briefly: the number, and no unit.

Worked examples, 3 molecules total:
{"columns": ["molecule", "z-score of subpopulation abundance"],
 "data": [
  ["CC(NCCC(c1ccccc1)c1ccccc1)c1ccccc1 (centres undefined) [Fendiline hydrochloride]", -1.15],
  ["C[C@H](NCc1ccc(OCc2cccc(F)c2)cc1)C(N)=O [Safinamide Mesylate]", 0.17],
  ["O=C(CCCN1CCN(c2ccccn2)CC1)c1ccc(F)cc1", 0.85]
]}

### Prompt Recorded z-score of subpopulation abundance of CCCN1CCCC[C@H]1C(=O)Nc1c(C)cccc1C [Ropivacaine] , please.
### Response -0.14

### Prompt Recorded z-score of subpopulation abundance of O=C(Nc1ccc(Oc2ccc(Cl)cc2)c(Cl)c1)c1cc(I)cc(I)c1O [Rafoxanide] , please.
### Response -0.89

### Prompt Recorded z-score of subpopulation abundance of CCN(CC)CCOc1ccc(C(=C(Cl)c2ccccc2)c2ccccc2)cc1 [Clomifene citrate] , please.
### Response 0.9

### Prompt Recorded z-score of subpopulation abundance of "Cc1c(OCC(F)(F)F)ccnc1C[S@@+]([O-])c1nc2ccccc2[nH]1" , please.
### Response -0.91

### Prompt Recorded z-score of subpopulation abundance of "CN1[C@@H]2CC[C@H]1C[C@@H](OC(=O)c1c[nH]c3ccccc13)C2" , please.
### Response 0.48

### Prompt Recorded z-score of subpopulation abundance of "Cc1ncc([N+](=O)[O-])n1C" , please.
### Response -0.37

* * *

- Test system: Saccharomyces cerevisiae BY4741 SeMeCo community
- experiment.summary: z-score of subpopulation abundance vs DMSO median, subpopulation auxotrophic for H; higher = larger share of this subpopulation than in DMSO controls
- condition.label: 10 µM; 24 h; SM minimal medium; subpopulation (auxotrophy): H
Where a name gives a salt, the structure may show the parent alone.
quantity.kind: z-score of subpopulation abundance
Reply briefly: the number, and no unit.

{"columns": ["molecule", "z-score of subpopulation abundance"],
 "data": [
  ["O=C(O)CCC(=O)OC[C@@H](NC(=O)C(Cl)Cl)[C@H](O)c1ccc([N+](=O)[O-])cc1 [Chloramphenicol sodium succinate]", 0.42],
  ["C[C@]12CC[C@@H]3c4ccc(OC(=O)c5ccccc5)cc4CC[C@H]3[C@@H]1CC[C@@H]2O [Estradiol Benzoate]", -0.36],
  ["CCN(CC)CCOC(=O)c1ccc(N)cc1 [Procaine HCl]", -0.47],
  ["Cn1c([N+](=O)[O-])cnc1COC(N)=O [Ronidazole]", -1.34],
  ["COC(=O)Nc1nc2cc([S+]([O-])c3ccccc3)ccc2[nH]1 (stereo unspecified) [Oxfendazole]", 0.08]
]}

### Prompt Recorded z-score of subpopulation abundance of Cc1c(Nc2ncccc2C(=O)O)cccc1C(F)(F)F [Flunixin Meglumin] , please.
### Response -0.33

### Prompt Recorded z-score of subpopulation abundance of C#C[C@]1(OC(C)=O)CC[C@H]2[C@@H]3CCC4=C[C@@H](OC(C)=O)CC[C@@H]4[C@H]3CC[C@@]21C [Ethynodiol diacetate] , please.
### Response -0.43

### Prompt Recorded z-score of subpopulation abundance of Nc1nc(/C(=C/CC(=O)O)C(=O)N[C@@H]2C(=O)N3C(C(=O)O)=CCS[C@H]23)cs1 [Ceftibuten dihydrate] , please.
### Response -0.33

### Prompt Recorded z-score of subpopulation abundance of CC[C@@H]1C(=O)OC[C@@H]1Cc1cncn1C [Pilocarpine HCl] , please.
### Response 0.8

### Prompt Recorded z-score of subpopulation abundance of CO/N=C(\C(=O)N[C@@H]1C(=O)N2C(C(=O)[O-])=C(C[n+]3cccc4c3CCC4)CS[C@H]12)c1csc(N)n1 [Cefpirome sulfate] , please.
### Response 0.64

### Prompt Recorded z-score of subpopulation abundance of Cc1ncc([N+](=O)[O-])n1CCO [Metronidazole] , please.
### Response 0.44

### Prompt Recorded z-score of subpopulation abundance of CC[C@@H]1/C=C(\C)C[C@H](C)C[C@H](OC)[C@H]2O[C@@](O)(C(=O)C(=O)N3CCCC[C@H]3C(=O)O[C@H](/C(C)=C/[C@@H]3CC[C@H](Cl)[C@H](OC)C3)[C@H](C)[C@@H](O)CC1=O)[C@H](C)C[C@@H]2OC [Pimecrolimus] , please.
### Response 1.91

### Prompt Recorded z-score of subpopulation abundance of CC(C)NC(=N)NC(=N)Nc1ccc(Cl)cc1 [Proguanil] , please.
### Response -0.88

### Prompt Recorded z-score of subpopulation abundance of CC(C(O)c1ccc(O)cc1)N1CCC(Cc2ccccc2)CC1 (stereo unspecified) [Ifenprodil Tartrate] , please.
### Response -0.73

### Prompt Recorded z-score of subpopulation abundance of C[C@H]1NCc2cc(-c3ccc4c(=O)c(C(=O)O)cn(C5CC5)c4c3OC(F)F)ccc21 [Garenoxacin] , please.
### Response -0.22

### Prompt Recorded z-score of subpopulation abundance of OCc1ccc(Cl)cc1Cl [2,4-dichlorobenzyl alcohol] , please.
### Response 0
